target: Kras and SOS1 (biotin-tagged human Kras loaded with GDP, His-tagged human SOS1) (Homo sapiens, UniProt P01116, G12D); construct: made in house; host or cells: E. coli (stated for Kras only); assay: Protein-protein interaction inhibition between Kras and SOS1 (KrasGl2D-SOS PPI) using AlphaScreen; type: binding; settings: AlphaScreen; biotin-tagged human Kras loaded with GDP, His-tagged human SOS1; read-out: KRAS G12D-SOS PPI IC50
Sequence (P01116 1-188 isoform P01116-2 G12D): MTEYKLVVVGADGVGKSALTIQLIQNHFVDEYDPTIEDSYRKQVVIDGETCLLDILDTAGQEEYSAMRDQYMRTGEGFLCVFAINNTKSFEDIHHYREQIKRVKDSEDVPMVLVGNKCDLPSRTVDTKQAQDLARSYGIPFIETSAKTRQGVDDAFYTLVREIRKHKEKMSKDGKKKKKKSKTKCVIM
Positions of bridges follow the written chain, without caps; N, C: chain ends. Non-standard residues stand in square brackets, D forms with d. Residues, ends and D or L forms follow the SMILES beside them. *: point of attachment. hPhe(3-Cl-4-CF3) = N[C@@H](CCc1ccc(C(F)(F)F)c(Cl)c1)C(=O)O; NMePhe(4-Me) = CN[C@@H](Cc1ccc(C)cc1)C(=O)O; NMeD = CN[C@@H](CC(=O)O)C(=O)O; NMeL = CN[C@@H](CC(C)C)C(=O)O; NMeV = CN[C@H](C(=O)O)C(C)C; Piperidide = C1CCN(*)CC1; Ac5c = NC1(C(=O)O)CCCC1; Sar = CNCC(=O)O
propertyMeasured: pIC50
# pIC50 is unitless: minus log10 of the molar concentration; print number only

### Prompt Quick one: pIC50 of CC[C@H](C)[C@@H]1NC(=O)[C@H](CC(C)C)N(C)C(=O)C[C@@H](C(=O)N2CCCCC2)N(C)C(=O)[C@H](C(C)C)N(C)C(=O)C2(CCCC2)NC(=O)[C@@H]2CCCN2C(=O)[C@H](CCc2ccc(C(F)(F)F)c(Cl)c2)NC(=O)CN(C)C(=O)[C@H](Cc2ccc(C)cc2)N(C)C(=O)CN(C)C(=O)CN(C)C1=O [Compound 1594] ([NMeL]I[Sar][Sar][NMePhe(4-Me)][Sar][hPhe(3-Cl-4-CF3)]P[Ac5c][NMeV][NMeD]-Piperidide; lactam N-11) ?
### Response 8.49

###

Consider the following molecules; for each one, report its IC50.
Target: Kras and SOS1 (biotin-tagged human Kras loaded with GDP, His-tagged human SOS1) (Homo sapiens, UniProt P01116, G12D)
Construct: made in house; host or cells: E. coli (stated for Kras only)
Assay: Protein-protein interaction inhibition between Kras and SOS1 (KrasGl2D-SOS PPI) using AlphaScreen
Format: binding
Conditions: AlphaScreen; biotin-tagged human Kras loaded with GDP, His-tagged human SOS1; read-out: KRAS G12D-SOS PPI IC50
Description: Protein-Protein Interaction Inhibition Between Kras and SOS1 (KrasGl2D-SOS PPI) Using AlphaScreen Protein-protein interaction inhibition (PPI) between Kras and SOS1 was measured by energy transfer from nickel-conjugated donor beads to streptavidin-conjugated acceptor beads using biotin-tagged human Kras expressed in E. coli and loaded with GDP after purification and His-tagged human SOS1 enzyme. […]
Positions of bridges follow the written chain, without caps; N, C: chain ends. Non-standard residues stand in square brackets, D forms with d. Residues, ends and D or L forms follow the SMILES beside them. *: point of attachment. hPhe(3-Cl-4-CF3) = N[C@@H](CCc1ccc(C(F)(F)F)c(Cl)c1)C(=O)O; hPhe(4-Cl) = N[C@@H](CCc1ccc(Cl)cc1)C(=O)O; NMeCha = CN[C@@H](CC1CCCCC1)C(=O)O; NMeChg = CN[C@H](C(=O)O)C1CCCCC1; NMeD = CN[C@@H](CC(=O)O)C(=O)O; NMeL = CN[C@@H](CC(C)C)C(=O)O; NMeNva = CCC[C@H](NC)C(=O)O; Morpholide = C1CN(*)CCO1; Piperidide = C1CCN(*)CC1; Ac5c = NC1(C(=O)O)CCCC1; Sar = CNCC(=O)O
The reply should be a number in nM, with the unit left off.

### Prompt Quick one: IC50 of CCC[C@H]1C(=O)N(C)[C@H](C(=O)N2CCCCC2)CC(=O)N(C)[C@@H](CC(C)C)C(=O)N[C@@H]([C@@H](C)CC)C(=O)N(C)CC(=O)N(C)CC(=O)N(C)[C@@H](CC2CCCCC2)C(=O)N(C)CC(=O)N[C@@H](CCc2ccc(C(F)(F)F)c(Cl)c2)C(=O)N2CCC[C@H]2C(=O)NC2(CCCC2)C(=O)N1C [Compound 548] ([NMeL]I[Sar][Sar][NMeCha][Sar][hPhe(3-Cl-4-CF3)]P[Ac5c][NMeNva][NMeD]-Piperidide; lactam N-11) ?
### Response 1.6

### Prompt Another molecule to check: CC[C@H](C)[C@@H]1NC(=O)[C@H](CC(C)C)N(C)C(=O)C[C@@H](C(=O)N2CCOCC2)N(C)C(=O)[C@H](C2CCCCC2)N(C)C(=O)C2(CCCC2)NC(=O)[C@@H]2CCCN2C(=O)[C@H](CCc2ccc(Cl)cc2)NC(=O)CN(C)C(=O)[C@H](CC2CCCCC2)N(C)C(=O)CN(C)C(=O)CN(C)C1=O [Compound 1941] ([NMeL]I[Sar][Sar][NMeCha][Sar][hPhe(4-Cl)]P[Ac5c][NMeChg][NMeD]-Morpholide; lactam N-11)
### Response 1.5
